Every entry's value here was drawn from ChEMBL document CHEMBL5726883.

target: G-protein coupled receptor 6 (Homo sapiens, UniProt P46095); experiment: A.1 Inhibition of cAMP Activity of GPR6 In Vitro Assay: This cell based assay measures the ability of compounds to inhibit the constitutive cAMP activity of GPR6 receptor expressed in CHO-K1 cells. CHO cells were stably expressed with GPR6 receptor, whose expression is controlled by a tetracycline inducible element. The cells were cultured in medium containing F12K, 10% FBS, 1% Penn/Strep, 200 ug/mL Hygromycin. GPR6 receptor expression was induced for 20 hrs with 10 µg/ml doxycycline (sigma D9891) in growth media. After addition of doxycycline cells were plated at a density of 250-500 cells per well in half-volume black clear bottom plates (Costar) and place in an incubator (37°, 5% C(O)2) for 20 hours prior to cAMP assays.Culture media was removed from cells and they were washed with […] of Ringer's Buffer (MgCl2 0.047 mg/mL, NaH2PO4 0.18 mg/mL, Na2HPO4 0.1 mg/mL, KCl 0.34 mg/mL, NaHC(O)3 1.26 mg/mL, D-glucose 1.8 mg/mL, NaCl 7 mg/mL; pH=7.4). Compounds suspended in DMSO were diluted in Ringer's Buffer containing 0.5% fatty acid free BSA and incubated on cells for 45 min at 37° and 5% C(O)2. After incubation cells were incubated for 10 min at room temp with Eu-cAMP tracer solution from a Perkin Elmer Lance HTRF UltracAMP assay kit (TRF0264).
Sequence (P46095 whole entry): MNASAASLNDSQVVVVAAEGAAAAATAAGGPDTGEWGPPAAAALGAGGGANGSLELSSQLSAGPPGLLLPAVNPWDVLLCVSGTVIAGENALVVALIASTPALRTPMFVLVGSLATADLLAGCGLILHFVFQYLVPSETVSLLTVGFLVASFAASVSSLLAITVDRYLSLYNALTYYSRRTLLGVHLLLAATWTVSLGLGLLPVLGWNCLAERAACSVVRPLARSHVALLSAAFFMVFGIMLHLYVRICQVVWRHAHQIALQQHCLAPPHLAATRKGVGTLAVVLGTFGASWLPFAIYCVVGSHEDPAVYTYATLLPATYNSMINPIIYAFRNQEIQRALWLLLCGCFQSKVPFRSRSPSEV
measurement.label: EC50 (µM)
Reply with just the number (in µM).

Prompt line: Entry CC(C)Nc1nc(COCCN(C)C)c(C#N)nc1N1CCN(Cc2ccc(F)cc2F)CC1 has what EC50?
Response line: 62.5
